System: NCI-H2122
Assay: combination cScore with adagrasib (Bliss gap around IC50) (%PoC); higher = stronger additive effect
EXPERIMENTAL_READOUT: combination cScore with adagrasib

Here are 6 molecules together with their reported answers.
1. CCNC(=O)C[C@@H]1N=C(c2ccc(Cl)cc2)c2cc(OC)ccc2-n2c(C)nnc21 [iBET-762] + C=C(F)C(=O)N1CCN(c2nc(OC[C@@H]3CCCN3C)nc3c2CCN(c2cccc4cccc(Cl)c24)C3)C[C@@H]1CC#N: 22.7
2. COc1cc2c(Oc3ccc4[nH]c(C)cc4c3F)ncnc2cc1OCCCN1CCCC1 [Cediranib] + C=C(F)C(=O)N1CCN(c2nc(OC[C@@H]3CCCN3C)nc3c2CCN(c2cccc4cccc(Cl)c24)C3)C[C@@H]1CC#N: -4.17
3. CN(Cc1cnc2nc(N)nc(N)c2n1)c1ccc(C(=O)N[C@@H](CCC(=O)O)C(=O)O)cc1 [Methotrexate] + C=C(F)C(=O)N1CCN(c2nc(OC[C@@H]3CCCN3C)nc3c2CCN(c2cccc4cccc(Cl)c24)C3)C[C@@H]1CC#N: -2.65
4. CC1=C(/C=C/C(C)=C/C=C/C(C)=C/C(=O)O)C(C)(C)CCC1 [Tretinoin] + C=C(F)C(=O)N1CCN(c2nc(OC[C@@H]3CCCN3C)nc3c2CCN(c2cccc4cccc(Cl)c24)C3)C[C@@H]1CC#N: -2.19
5. O=[N+]([O-])c1ccc(NCCNc2ncc(-c3ncc[nH]3)c(-c3ccc(Cl)cc3Cl)n2)nc1 + C=C(F)C(=O)N1CCN(c2nc(OC[C@@H]3CCCN3C)nc3c2CCN(c2cccc4cccc(Cl)c24)C3)C[C@@H]1CC#N: -12.7
6. O=C(c1c(F)ccc(NS(=O)(=O)N2CC[C@@H](F)C2)c1F)c1c[nH]c2ncc(-c3cnc(C4CC4)nc3)cc12 [PLX8394] + C=C(F)C(=O)N1CCN(c2nc(OC[C@@H]3CCCN3C)nc3c2CCN(c2cccc4cccc(Cl)c24)C3)C[C@@H]1CC#N: 17.5

Give combination cScore with adagrasib for each listed item.
1. COC(=O)[C@]12CCC(C)(C)C[C@H]1[C@H]1C(=O)C=C3[C@@]4(C)C=C(C#N)C(=O)C(C)(C)[C@@H]4CC[C@@]3(C)[C@]1(C)CC2 [Bardoxolone methyl] + C=C(F)C(=O)N1CCN(c2nc(OC[C@@H]3CCCN3C)nc3c2CCN(c2cccc4cccc(Cl)c24)C3)C[C@@H]1CC#N
2. CN(C)C(=N)NC(=N)N [Metformin] + C=C(F)C(=O)N1CCN(c2nc(OC[C@@H]3CCCN3C)nc3c2CCN(c2cccc4cccc(Cl)c24)C3)C[C@@H]1CC#N
3. CNC(=O)c1cc(Oc2ccc(NC(=O)Nc3ccc(Cl)c(C(F)(F)F)c3)cc2)ccn1 [Sorafenib] + C=C(F)C(=O)N1CCN(c2nc(OC[C@@H]3CCCN3C)nc3c2CCN(c2cccc4cccc(Cl)c24)C3)C[C@@H]1CC#N

[5.12, -8.41, -6.98]

Give combination cScore with adagrasib for each listed item.
1. O=C(O)c1nn(Cc2ccc(Cl)cc2Cl)c2ccccc12 [Lonidamine] + C=C(F)C(=O)N1CCN(c2nc(OC[C@@H]3CCCN3C)nc3c2CCN(c2cccc4cccc(Cl)c24)C3)C[C@@H]1CC#N
2. CC(O)(CS(=O)(=O)c1ccc(F)cc1)C(=O)Nc1ccc(C#N)c(C(F)(F)F)c1 (stereo not given) [Bicalutamide] + C=C(F)C(=O)N1CCN(c2nc(OC[C@@H]3CCCN3C)nc3c2CCN(c2cccc4cccc(Cl)c24)C3)C[C@@H]1CC#N
3. CC[C@]1(O)C[C@@H]2CN(CCc3c([nH]c4ccccc34)[C@@](C(=O)OC)(c3cc4c(cc3OC)N(C)[C@H]3[C@@](O)(C(=O)OC)[C@H](OC(C)=O)[C@]5(CC)C=CCN6CC[C@]43[C@@H]65)C2)C1 [Vinblastine] + C=C(F)C(=O)N1CCN(c2nc(OC[C@@H]3CCCN3C)nc3c2CCN(c2cccc4cccc(Cl)c24)C3)C[C@@H]1CC#N
4. O=C(CCCCCCC(=O)Nc1ccccc1)NO [Vorinostat] + C=C(F)C(=O)N1CCN(c2nc(OC[C@@H]3CCCN3C)nc3c2CCN(c2cccc4cccc(Cl)c24)C3)C[C@@H]1CC#N

1: -1.92; 2: 4.44; 3: -3.66; 4: 1.67

Give combination cScore with adagrasib for each listed item.
1. CC(=O)O[C@H]1C(=O)[C@@]2(C)[C@H]([C@H](OC(=O)c3ccccc3)[C@]3(O)C[C@H](OC(=O)[C@H](O)[C@@H](NC(=O)c4ccccc4)c4ccccc4)C(C)=C1C3(C)C)[C@]1(OC(C)=O)CO[C@@H]1C[C@@H]2O [Paclitaxel] + C=C(F)C(=O)N1CCN(c2nc(OC[C@@H]3CCCN3C)nc3c2CCN(c2cccc4cccc(Cl)c24)C3)C[C@@H]1CC#N
2. COc1cc2c(NC3CCN(C(C)C)CC3)nc(C3CCCCC3)nc2cc1OCCCN1CCCC1 [UNC0638] + C=C(F)C(=O)N1CCN(c2nc(OC[C@@H]3CCCN3C)nc3c2CCN(c2cccc4cccc(Cl)c24)C3)C[C@@H]1CC#N

[0.85, 5.77]
